System: Felis catus
method_summary: In vivo inhibition of beta-2 adrenoceptor in chloralose-anesthetized vagotomized cat assessed as inhibition of isoproterenol-induced fall in diastolic pressure
Format: functional, organism-based
condition_label: read-out: pA2 (converted)
Exercise: for every item that follows, state its recorded Kb.

The molecule identified as CC(C)N[C@H](C)[C@@H](O)COc1ccccc1.Cl (racemic) registered its Kb at 0.151 µM

Item: CC(C)N[C@@H](C)[C@@H](O)COc1ccccc1.O=C(O)C(=O)O (racemic) | Kb: 0.631 µM

According to the records, this molecule Cc1ccc(OCC(O)CNC(C)C)cc1 (racemic) displays Kb of 0.234 µM

For COc1ccc(CCNCC(O)COc2ccccc2)cc1OC.Cl (racemic) the molecule record lists Kb as 0.692 µM

Memo: CC(C)NCC(O)COc1ccccc1 (racemic) , reported Kb: 0.204 µM

// field: Kb; key: CC(=O)Nc1ccc(OCC(O)CNC(C)C)cc1 (racemic) [PRACTOLOL] ; value = 5.01 µM

Kb for Cc1ccc([C@@H](O)[C@H](C)NC(C)C)cc1 (racemic) is 3.39 µM

Recorded result, CC(C)N[C@H](c1ccccc1)[C@@H](O)COc1ccccc1 (racemic) , Kb: > 10 µM

// Kb lookup, molecule = COc1ccc(CCN[C@H](C)[C@@H](O)COc2ccccc2)cc1OC.Cl (racemic) , result: > 10 µM

====

System: Felis catus
method_summary: In vivo inhibition of beta-1 adrenoceptor in vagotomized cat assessed as inhibition of isoproterenol-induced tachycardia
Type: functional, organism-based
condition_label: read-out: pA2 (converted)
Task for the reader: assign each of the following molecules its reported Kb.
Give the quantity in µM, number only.

Sample COc1ccc(CCN[C@H](C)[C@@H](O)COc2ccccc2)cc1OC.Cl (racemic) ; Kb observed: 0.219

The reported value for COc1ccc(CCNCC(O)COc2ccccc2)cc1OC.Cl (racemic) in terms of Kb is 0.0631

The molecule Cc1ccc(OCC(O)CNC(C)C)cc1 (racemic) showed Kb equal to 0.234

For record CC(C)N[C@H](C)[C@@H](O)COc1ccccc1.Cl (racemic) the listed Kb is 0.501

molecule CC(C)N[C@@H](C)[C@@H](O)COc1ccccc1.O=C(O)C(=O)O (racemic) , Kb observed: 2.19

Quick note, Kb for CC(=O)Nc1ccc(OCC(O)CNC(C)C)cc1 (racemic) landed at 0.229

Entry under test: CC(C)NCC(O)COc1ccccc1 (racemic) . Its Kb was 0.0447
